assay: Cytotoxic activity was evaluated against Epidermoid Carcinoma KB cells; assay type: functional, cell-based; conditions: Homo sapiens
result_type: log10 of IC50 (log10 of the value in µg/mL)
Quick note: numbers are log10 of IC50, with µg/mL as the unit.

Known results for compounds:
C=C1[C@@H](O)C[C@H](OC(C)=O)[C@@]2(C)[C@@H](OC(C)=O)[C@H](OC(C)=O)C3=C(C)[C@@H](O)C[C@@H]([C@@H](OC(C)=O)[C@H]12)C3(C)C
0.96
C=C1[C@@H](OC(=O)/C=C/c2ccccc2)C[C@H](O)[C@@]2(C)[C@@H](O)[C@H](OC(C)=O)C3=C(C)C(=O)C[C@@H]([C@@H](O)[C@H]12)C3(C)C
0.93
CCCCCC(=O)N(C)[C@@H](c1ccccc1)[C@@H](O)C(=O)O[C@H]1C[C@@]2(O)[C@@H](OC(=O)c3ccccc3)[C@@H]3[C@]4(OC(C)=O)CO[C@@H]4C[C@H](O)[C@@]3(C)C(=O)[C@H](OC(C)=O)C(=C1C)C2(C)C
-0.77
CC(=O)O[C@H]1C2=C(CO)[C@@H](O)CC[C@@]2(C)[C@@H](OC(C)=O)[C@H](OC(C)=O)[C@@]2(O)[C@H](C)C(=O)C[C@@H]1C2(C)C
0.41

Then there is this compound:
Briefly, log10 of IC50 measured for CC(=O)O[C@@]12CO[C@@H]1C[C@H](O)[C@@]1(C)C(=O)[C@H](OC(=O)CC(C)O)C3=C(C)[C@@H](OC(=O)[C@H](O)[C@@H](NC(=O)c4ccccc4)c4ccccc4)C[C@@](O)([C@@H](OC(=O)c4ccccc4)[C@H]21)C3(C)C (some centres undefined) : -2.60

----------
assay: Cytotoxic activity was evaluated against Epidermoid Carcinoma KB cells; format: functional, cell-based; conditions: Homo sapiens
Examples of compounds with documented IC50 follow.

Known results for compounds:
CC(=O)O[C@H]1C(=O)[C@@]2(C)[C@H]([C@H](OC(=O)c3ccccc3)[C@]3(O)C[C@H](O)C(C)=C1C3(C)C)[C@]1(OC(C)=O)CO[C@@H]1C[C@@H]2O
10 µg/mL
C=C1[C@@H](OC(=O)/C=C/c2ccccc2)CC[C@@]2(C)[C@@H](OC(C)=O)[C@H](OC(C)=O)C3=C(C)[C@@H](OC(C)=O)C[C@@H]([C@@H](O)[C@H]12)C3(C)C
9.2 µg/mL

Then there is this compound:
Briefly, IC50 measured for C=C1[C@@H](O)CC[C@@]2(C)[C@@H](OC(C)=O)[C@H](O)C3=C(C)C(=O)C[C@@H]([C@@H](O)[C@H]12)C3(C)C : > 10 µg/mL

Attribution: ChEMBL document CHEMBL1130845
